Every entry's value here was drawn from patent US20040224981A1.

Tested on: S. aureus
Assay: MIC against S. aureus strains and clinical isolates (broth microdilution)
Format: cell-based, Staphylococcus aureus
Settings: Staphylococcus aureus, S. aureus 101-100 (Mup. Susc.); read-out: MIC
Structures can show the parent of a compound that is named as a salt.
measured_metric: MIC (µg/mL)
Field: numeric (µg/mL). Do not append units.

Example entries begin here.
molecule: O=c1cc(NC[C@H]2CCC[C@@H]2NCc2ccc(Cl)c(Cl)c2)[nH]c2ccccc12
study_target: S. aureus
obs_value: 2
//
molecule: Cc1onc(-c2ccccc2)c1C(=O)N[C@@H]1C(=O)N2[C@@H]1SC(C)(C)[C@@H]2C(=O)O
study_target: S. aureus
obs_value: 16

Problem: Form: Entry = Brc1cc(Br)c2c(c1)C(NCCCNc1nc3ncccc3[nH]1)CCN2 (stereo not shown) [MRSi cmpd 2, dihydrochloride] | System = S. aureus | MIC = ____
Solution: 0.12

====

Overview of recorded MIC for various compounds
Tested on: S. aureus
Assay: MIC against S. aureus strains and clinical isolates (broth microdilution)
Type: cell-based, Staphylococcus aureus
Details: Staphylococcus aureus, S. aureus 87-2797 (Mup. Susc.); read-out: MIC
Where a name gives a salt, the structure may show the parent alone.
Field: numeric (µg/mL). Do not append units.

compound: O=c1cc(NC[C@H]2CCC[C@@H]2NCc2ccc(Cl)c(Cl)c2)[nH]c2ccccc12
MIC (µg/mL): 2

compound: C/C(=C\C(=O)OCCCCCCCCC(=O)O)C[C@@H]1OC[C@H](C[C@@H]2O[C@H]2[C@@H](C)[C@H](C)O)[C@@H](O)[C@H]1O
MIC (µg/mL): 0.25

Problem: Please look up its MIC: Brc1cc(Br)c2c(c1)C(NCCCNc1nc3ncccc3[nH]1)CCN2 (stereo not shown) [MRSi cmpd 2, dihydrochloride]
Solution: 0.25

====

Tested on: S. aureus
Assay: MIC against S. aureus strains and clinical isolates (broth microdilution)
Type: cell-based, Staphylococcus aureus
Conditions: Staphylococcus aureus, ATCC43300, S. aureus ATCC 43300 (ORSA); read-out: MIC
Structures can show the parent of a compound that is named as a salt.
Overview of recorded MIC for various molecules
Field: numeric (µg/mL). Do not append units.

Example entries begin here.
molecule: Cc1onc(-c2ccccc2)c1C(=O)N[C@@H]1C(=O)N2[C@@H]1SC(C)(C)[C@@H]2C(=O)O [Oxacillin]
obs_value: 4
//
molecule: O=c1cc(NC[C@H]2CCC[C@@H]2NCc2ccc(Cl)c(Cl)c2)[nH]c2ccccc12 [MRSi cmpd 3]
obs_value: 4
//
molecule: Brc1cc(Br)c2c(c1)C(NCCCNc1nc3ncccc3[nH]1)CCN2 (stereo not shown) [MRSi cmpd 2, dihydrochloride]
obs_value: 0.25

Problem: Please look up its MIC: C/C(=C\C(=O)OCCCCCCCCC(=O)O)C[C@@H]1OC[C@H](C[C@@H]2O[C@H]2[C@@H](C)[C@H](C)O)[C@@H](O)[C@H]1O [Mupirocin, Pseudomonic acid A]
Solution: 0.12

====

Test system: S. aureus
Assay: MIC against S. aureus strains and clinical isolates (broth microdilution)
Assay type: cell-based, Staphylococcus aureus
Details: Staphylococcus aureus, S. aureus 25-670 (HL Mup. Rest.); read-out: MIC
Procedure: were tested against a collection of clinical isolates of S. aureus including strains that were multi-resistant to mupirocin and to other agents such as gentamicin and oxacillin. The acetate and mupirocin salts of the MRS inhibitor compound 5 were tested against a collection of both low and high-level mupirocin resistant clinical isolates of S. aureus (Table 6). […]
Structures can show the parent of a compound that is named as a salt.
measured_metric: MIC (µg/mL)
Field: numeric (µg/mL). Do not append units.

compound: Brc1cc(Br)c2c(c1)C(NCCCNc1nc3ncccc3[nH]1)CCN2 (stereo not shown) [MRSi cmpd 2, dihydrochloride]
MIC (µg/mL): 0.25

Note: attention shifts to another entry.
Problem: Form: Entry = O=c1cc(NC[C@H]2CCC[C@@H]2NCc2ccc(Cl)c(Cl)c2)[nH]c2ccccc12 [MRSi cmpd 3] | System = S. aureus | MIC = ____
Solution: 4
